- Test system: Kidney
- METHOD DESCRIPTION: Biodistribution in ddY mouse kidney at 0.5 uCi, iv after 60 mins
- Assay type: ADME, organism-based
- CONDITION PARAMETERS: in vivo, 1 h
Please go through the items and note down their Drug uptake.
Kindly answer with a numeric value in % ID/g, unit omitted.

*Q* Recorded Drug uptake for `CN(C)c1ccc(-c2nc(-c3ccc([125I])cc3)no2)cc1` , please?
*A* 3.31

*Q* Further, for `CNc1ccc(-c2nc(-c3ccc([125I])cc3)no2)cc1` ?
*A* 3.02

*Q* Further, for `Nc1ccc(-c2nc(-c3ccc([125I])cc3)no2)cc1` ?
*A* 5.15

*Q* Further, for `COc1ccc(-c2nc(-c3ccc([125I])cc3)no2)cc1` ?
*A* 2.95

###

- System: Pancreas
- METHOD DESCRIPTION: Biodistribution in ddY mouse pancreas at 0.5 uCi, iv after 30 mins
- Assay type: ADME, organism-based
- CONDITION PARAMETERS: in vivo, 0.5 h
Please go through the items and note down their Drug uptake.
Kindly answer with a numeric value in % ID/g, unit omitted.

*Q* Please provide the recorded Drug uptake for `Nc1ccc(-c2nc(-c3ccc([125I])cc3)no2)cc1` , tested on Pancreas.
*A* 3.36

*Q* Further, for `CNc1ccc(-c2nc(-c3ccc([125I])cc3)no2)cc1` ?
*A* 3.06

*Q* Further, for `CN(C)c1ccc(-c2nc(-c3ccc([125I])cc3)no2)cc1` ?
*A* 2.86

*Q* Further, for `COc1ccc(-c2nc(-c3ccc([125I])cc3)no2)cc1` ?
*A* 2.84

###

- Test system: Liver
- METHOD DESCRIPTION: Biodistribution in ddY mouse liver at 0.5 uCi, iv after 2 mins
- Assay type: ADME, organism-based
- CONDITION PARAMETERS: in vivo
READOUT: Drug uptake (% ID/g)
Kindly answer with a numeric value in % ID/g, unit omitted.

*Q* Please provide the recorded Drug uptake for `CNc1ccc(-c2nc(-c3ccc([125I])cc3)no2)cc1` , tested on Liver.
*A* 14.62

*Q* Further, for `Nc1ccc(-c2nc(-c3ccc([125I])cc3)no2)cc1` ?
*A* 21.36

*Q* Further, for `COc1ccc(-c2nc(-c3ccc([125I])cc3)no2)cc1` ?
*A* 11.92

*Q* Further, for `CN(C)c1ccc(-c2nc(-c3ccc([125I])cc3)no2)cc1` ?
*A* 13.94

###

- System: Kidney
- METHOD DESCRIPTION: Biodistribution in ddY mouse kidney at 0.5 uCi, iv after 10 mins
- Assay type: ADME, organism-based
- CONDITION PARAMETERS: in vivo
READOUT: Drug uptake (% ID/g)
Kindly answer with a numeric value in % ID/g, unit omitted.

*Q* Recorded Drug uptake for `Nc1ccc(-c2nc(-c3ccc([125I])cc3)no2)cc1` , please?
*A* 6.94

*Q* Further, for `CN(C)c1ccc(-c2nc(-c3ccc([125I])cc3)no2)cc1` ?
*A* 7.67

*Q* Further, for `COc1ccc(-c2nc(-c3ccc([125I])cc3)no2)cc1` ?
*A* 6.22

*Q* Further, for `CNc1ccc(-c2nc(-c3ccc([125I])cc3)no2)cc1` ?
*A* 5.3

###

- Test system: Kidney
- METHOD DESCRIPTION: Biodistribution in ddY mouse kidney at 0.5 uCi, iv after 30 mins
- Format: ADME, organism-based
- CONDITION PARAMETERS: in vivo, 0.5 h
READOUT: Drug uptake

*Q* Recorded Drug uptake for `COc1ccc(-c2nc(-c3ccc([125I])cc3)no2)cc1` , please?
*A* 3.85 % ID/g

*Q* Further, for `CN(C)c1ccc(-c2nc(-c3ccc([125I])cc3)no2)cc1` ?
*A* 4.81 % ID/g

*Q* Further, for `CNc1ccc(-c2nc(-c3ccc([125I])cc3)no2)cc1` ?
*A* 3.39 % ID/g

*Q* Further, for `Nc1ccc(-c2nc(-c3ccc([125I])cc3)no2)cc1` ?
*A* 5.86 % ID/g

###

- Test system: Brain
- METHOD DESCRIPTION: Biodistribution in ddY mouse brain at 0.5 uCi, iv after 30 mins
- Assay type: ADME, organism-based
- CONDITION PARAMETERS: in vivo, 0.5 h
READOUT: Drug uptake (% ID/g)
Kindly answer with a numeric value in % ID/g, unit omitted.

*Q* Recorded Drug uptake for `CN(C)c1ccc(-c2nc(-c3ccc([125I])cc3)no2)cc1` , please?
*A* 2.23

*Q* Further, for `COc1ccc(-c2nc(-c3ccc([125I])cc3)no2)cc1` ?
*A* 2.82

*Q* Further, for `Nc1ccc(-c2nc(-c3ccc([125I])cc3)no2)cc1` ?
*A* 3.32

*Q* Further, for `CNc1ccc(-c2nc(-c3ccc([125I])cc3)no2)cc1` ?
*A* 2.56

###

- Tested on: Heart
- METHOD DESCRIPTION: Biodistribution in ddY mouse heart at 0.5 uCi, iv after 2 mins
- Type: ADME, organism-based
- CONDITION PARAMETERS: in vivo
READOUT: Drug uptake (% ID/g)
Kindly answer with a numeric value in % ID/g, unit omitted.

*Q* Recorded Drug uptake for `CNc1ccc(-c2nc(-c3ccc([125I])cc3)no2)cc1` , please?
*A* 9.51

*Q* Further, for `Nc1ccc(-c2nc(-c3ccc([125I])cc3)no2)cc1` ?
*A* 9.29

*Q* Further, for `COc1ccc(-c2nc(-c3ccc([125I])cc3)no2)cc1` ?
*A* 11.3

*Q* Further, for `CN(C)c1ccc(-c2nc(-c3ccc([125I])cc3)no2)cc1` ?
*A* 11.04

###

Please go through the items and note down their Drug uptake.
- Tested on: Spleen
- METHOD DESCRIPTION: Biodistribution in ddY mouse spleen at 0.5 uCi, iv after 10 mins
- Format: ADME, organism-based
- CONDITION PARAMETERS: in vivo
Give the value; after it, write the unit.

*Q* Please provide the recorded Drug uptake for `CNc1ccc(-c2nc(-c3ccc([125I])cc3)no2)cc1` , tested on Spleen.
*A* 4.7 % ID/g

*Q* Further, for `CN(C)c1ccc(-c2nc(-c3ccc([125I])cc3)no2)cc1` ?
*A* 4.56 % ID/g

*Q* Further, for `Nc1ccc(-c2nc(-c3ccc([125I])cc3)no2)cc1` ?
*A* 8.87 % ID/g

*Q* Further, for `COc1ccc(-c2nc(-c3ccc([125I])cc3)no2)cc1` ?
*A* 3.62 % ID/g

###

- Test system: Liver
- METHOD DESCRIPTION: Biodistribution in ddY mouse liver at 0.5 uCi, iv after 30 mins
- Type: ADME, organism-based
- CONDITION PARAMETERS: in vivo, 0.5 h
READOUT: Drug uptake

*Q* Recorded Drug uptake for `COc1ccc(-c2nc(-c3ccc([125I])cc3)no2)cc1` , please?
*A* 6.13 % ID/g

*Q* Further, for `Nc1ccc(-c2nc(-c3ccc([125I])cc3)no2)cc1` ?
*A* 14.89 % ID/g

*Q* Further, for `CN(C)c1ccc(-c2nc(-c3ccc([125I])cc3)no2)cc1` ?
*A* 5.89 % ID/g

*Q* Further, for `CNc1ccc(-c2nc(-c3ccc([125I])cc3)no2)cc1` ?
*A* 8.53 % ID/g

###

- Tested on: Intestine
- METHOD DESCRIPTION: Biodistribution in ddY mouse intestine at 0.5 uCi, iv after 2 mins
- Format: ADME, organism-based
- CONDITION PARAMETERS: in vivo
READOUT: Drug uptake
Give the value; after it, write the unit.

*Q* Recorded Drug uptake for `Nc1ccc(-c2nc(-c3ccc([125I])cc3)no2)cc1` , please?
*A* 1.5 % ID/g

*Q* Further, for `CN(C)c1ccc(-c2nc(-c3ccc([125I])cc3)no2)cc1` ?
*A* 1.59 % ID/g

*Q* Further, for `CNc1ccc(-c2nc(-c3ccc([125I])cc3)no2)cc1` ?
*A* 1.36 % ID/g

*Q* Further, for `COc1ccc(-c2nc(-c3ccc([125I])cc3)no2)cc1` ?
*A* 1.7 % ID/g

###

- Test system: Intestine
- METHOD DESCRIPTION: Biodistribution in ddY mouse intestine at 0.5 uCi, iv after 60 mins
- Assay type: ADME, organism-based
- CONDITION PARAMETERS: in vivo, 1 h
READOUT: Drug uptake (% ID/g)
Kindly answer with a numeric value in % ID/g, unit omitted.

*Q* Please provide the recorded Drug uptake for `Nc1ccc(-c2nc(-c3ccc([125I])cc3)no2)cc1` , tested on Intestine.
*A* 8.33

*Q* Further, for `CNc1ccc(-c2nc(-c3ccc([125I])cc3)no2)cc1` ?
*A* 8.46

*Q* Further, for `CN(C)c1ccc(-c2nc(-c3ccc([125I])cc3)no2)cc1` ?
*A* 5.37

*Q* Further, for `COc1ccc(-c2nc(-c3ccc([125I])cc3)no2)cc1` ?
*A* 8.21
